The reported measurements were obtained from patent US20230192660A1.

# Assayed Target: SARS-CoV-2 Mpro C145A mutant (Severe acute respiratory syndrome coronavirus 2, UniProt P0DTD1, C3408A)
# Format: binding
Test Readout: ΔTm Mpro C145A (°C)
One number for each entry, in °C.

CNC(=O)C(=O)[C@H](C[C@@H]1CCNC1=O)NC(=O)[C@@H]1[C@@H]2[C@H](CN1C(=O)CCc1ccccc1)C2(C)C [ML102m]
0
CNC(=O)C(=O)[C@H](C[C@@H]1CCNC1=O)NC(=O)[C@@H]1[C@@H]2[C@H](CN1C(=O)CNc1c(F)cc(F)cc1F)C2(C)C [ML104m]
0
COc1cccc2[nH]c(C(=O)N3C[C@H]4[C@@H]([C@H]3C(=O)N[C@@H](C[C@@H]3CCNC3=O)C(=O)C(N)=O)C4(C)C)cc12
0
CC1(C)[C@@H]2[C@@H](C(=O)N[C@@H](C[C@@H]3CCNC3=O)C(=O)C(N)=O)N(C(=O)CCc3ccccc3)C[C@@H]21
0

For every item below, please supply its ΔTm Mpro C145A.
1. CC(C)(C)[C@H](NC(=O)C12CC(C1)C2)C(=O)N1C[C@H]2[C@@H]([C@H]1C(=O)N[C@@H](C[C@@H]1CCNC1=O)C(=O)C(N)=O)C2(C)C
2. CC1(C)[C@@H]2[C@@H](C(=O)NC(C[C@@H]3CCNC3=O)C(=O)C(N)=O)N(C(=O)CNc3c(F)cc(F)cc3F)C[C@@H]21 (stereo partly shown)
3. CNC(=O)C(=O)[C@H](C[C@@H]1CCNC1=O)NC(=O)[C@@H]1[C@@H]2[C@H](CN1C(=O)[C@@H](NC(=O)C13CC(C1)C3)C(C)(C)C)C2(C)C [ML1002m]

result:
1: 0.1; 2: 0; 3: 0.1
